Reference source for all entries: patent US20220380407A1

# Measurement Target: T1, recombinant N-terminal His-tag HGFA serine protease domain (UniProt Q04756 373-655)
# T1 sequence (looked up): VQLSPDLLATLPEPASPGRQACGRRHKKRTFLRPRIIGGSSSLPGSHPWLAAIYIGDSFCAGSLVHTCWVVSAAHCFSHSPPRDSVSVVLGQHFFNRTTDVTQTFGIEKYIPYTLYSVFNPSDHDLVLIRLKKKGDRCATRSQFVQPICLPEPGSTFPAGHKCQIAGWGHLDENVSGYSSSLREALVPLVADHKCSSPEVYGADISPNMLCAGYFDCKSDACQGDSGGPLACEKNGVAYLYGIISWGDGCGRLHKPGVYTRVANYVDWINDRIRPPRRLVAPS
# Run Description: cell-based or functional assay
*: point of attachment. X9 = 1‑((5-chloro-2-methoxyphenyl)sulfonyl)piperidin‑4‑yl carbamate, COc1ccc(Cl)cc1S(=O)(=O)N1CCC(OC(=O)*)CC1; X8 = 1‑((4-chlorophenyl)sulfonyl)piperidin‑4‑yl carbamate, O=C(OC1CCN(S(=O)(=O)c2ccc(Cl)cc2)CC1)*; X13 = 1‑((2-fluorophenyl)sulfonyl)piperidin‑4‑yl carbamate, O=C(OC1CCN(S(=O)(=O)c2ccccc2F)CC1)*; X12 = 1‑(mesitylsulfonyl)piperidin‑4‑yl carbamate, Cc1cc(C)c(S(=O)(=O)N2CCC(OC(=O)*)CC2)c(C)c1; X4 = 1‑(phenylsulfonyl)piperidin‑4‑yl carbamate, O=C(OC1CCN(S(=O)(=O)c2ccccc2)CC1)*; X3 = 4‑benzylpiperidin‑4‑yl carbamate, O=C(OC1(Cc2ccccc2)CCNCC1)*; X1 = 4‑phenylpiperidin‑4‑yl carbamate, O=C(OC1(c2ccccc2)CCNCC1)*; kbt = C-terminal Arg ketobenzothiazole
Metric: HGFA IC50 (µM)
Give your result in µM as a bare value.

## Task Note down HGFA IC50 recorded for {phenyl(piperidin-4-yl)methyl carbamate}-Leu-Arg-kbt [phenyl(piperidin-4-yl)methyl Leu-Arg-kbt carbamate (11a)]
## Result 14

## Task Note down HGFA IC50 recorded for X8-Leu-Arg-kbt [1-((4-chlorophenyl)sulfonyl)piperidin-4-yl Leu-Arg-kbt carbamate (8i)]
## Result 9

## Task Note down HGFA IC50 recorded for X4-Leu-Arg-kbt [1-(phenylsulfonyl)piperidin-4-yl Leu-Arg-kbt carbamate (8f)]
## Result 8.6

## Task Note down HGFA IC50 recorded for X12-Leu-Arg-kbt [1-(mesitylsulfonyl)piperidin-4-yl Leu-Arg-kbt carbamate (8m)]
## Result 8.8

## Task Note down HGFA IC50 recorded for X3-Leu-Arg-kbt [4-benzylpiperidin-4-yl Leu-Arg-kbt carbamate (8b)]
## Result 1.2

## Task Note down HGFA IC50 recorded for X13-Leu-Arg-kbt [1-((2-fluorophenyl)sulfonyl)piperidin-4-yl Leu-Arg-kbt carbamate (8g)]
## Result 18

## Task Note down HGFA IC50 recorded for X1-Leu-Arg-kbt
## Result 0.78

## Task Note down HGFA IC50 recorded for X9-Leu-Arg-kbt [1-((5-chloro-2-methoxyphenyl)sulfonyl)piperidin-4-yl Leu-Arg-kbt carbamate (8l)]
## Result 6.3

## Task Note down HGFA IC50 recorded for {2‑phenyl‑1‑(piperidin-4-yl)ethyl carbamate}-Leu-Arg-kbt [2-phenyl-1-(piperidin-4-yl)ethyl Leu-Arg-kbt carbamate (11b)]
## Result 6
